Target: PI3Kalpha (PI3Ka) (Homo sapiens, UniProt P42336)
Construct: endogenous in cells; host or cells: cell lysate
Sequence (P42336 whole entry): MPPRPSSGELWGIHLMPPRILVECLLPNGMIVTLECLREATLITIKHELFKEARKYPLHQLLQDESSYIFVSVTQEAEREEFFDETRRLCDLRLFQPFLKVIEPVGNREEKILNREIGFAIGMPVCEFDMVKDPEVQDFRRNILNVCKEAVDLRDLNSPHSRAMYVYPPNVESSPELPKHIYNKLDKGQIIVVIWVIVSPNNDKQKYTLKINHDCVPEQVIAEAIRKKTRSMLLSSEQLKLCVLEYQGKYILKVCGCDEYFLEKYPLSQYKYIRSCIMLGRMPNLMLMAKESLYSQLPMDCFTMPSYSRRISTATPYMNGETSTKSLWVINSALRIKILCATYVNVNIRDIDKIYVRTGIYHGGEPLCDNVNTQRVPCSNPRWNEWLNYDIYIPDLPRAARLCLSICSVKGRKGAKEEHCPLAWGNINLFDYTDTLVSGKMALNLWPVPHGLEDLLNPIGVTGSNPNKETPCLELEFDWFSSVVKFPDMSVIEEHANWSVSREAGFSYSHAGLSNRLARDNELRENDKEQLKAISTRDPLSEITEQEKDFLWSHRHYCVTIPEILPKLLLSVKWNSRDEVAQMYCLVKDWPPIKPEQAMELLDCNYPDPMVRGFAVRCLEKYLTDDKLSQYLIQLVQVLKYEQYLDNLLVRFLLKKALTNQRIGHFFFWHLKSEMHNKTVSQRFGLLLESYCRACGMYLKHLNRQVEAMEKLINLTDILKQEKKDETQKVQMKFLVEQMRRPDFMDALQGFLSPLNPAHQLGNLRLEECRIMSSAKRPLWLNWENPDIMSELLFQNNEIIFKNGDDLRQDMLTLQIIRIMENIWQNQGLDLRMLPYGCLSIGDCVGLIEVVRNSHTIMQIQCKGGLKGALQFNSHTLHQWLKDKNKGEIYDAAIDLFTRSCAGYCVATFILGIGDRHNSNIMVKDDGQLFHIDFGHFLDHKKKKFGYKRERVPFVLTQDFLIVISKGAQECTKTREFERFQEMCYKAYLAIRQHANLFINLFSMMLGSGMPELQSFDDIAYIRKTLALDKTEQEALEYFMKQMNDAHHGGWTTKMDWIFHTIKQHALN
Sequence (P27986 whole entry partner): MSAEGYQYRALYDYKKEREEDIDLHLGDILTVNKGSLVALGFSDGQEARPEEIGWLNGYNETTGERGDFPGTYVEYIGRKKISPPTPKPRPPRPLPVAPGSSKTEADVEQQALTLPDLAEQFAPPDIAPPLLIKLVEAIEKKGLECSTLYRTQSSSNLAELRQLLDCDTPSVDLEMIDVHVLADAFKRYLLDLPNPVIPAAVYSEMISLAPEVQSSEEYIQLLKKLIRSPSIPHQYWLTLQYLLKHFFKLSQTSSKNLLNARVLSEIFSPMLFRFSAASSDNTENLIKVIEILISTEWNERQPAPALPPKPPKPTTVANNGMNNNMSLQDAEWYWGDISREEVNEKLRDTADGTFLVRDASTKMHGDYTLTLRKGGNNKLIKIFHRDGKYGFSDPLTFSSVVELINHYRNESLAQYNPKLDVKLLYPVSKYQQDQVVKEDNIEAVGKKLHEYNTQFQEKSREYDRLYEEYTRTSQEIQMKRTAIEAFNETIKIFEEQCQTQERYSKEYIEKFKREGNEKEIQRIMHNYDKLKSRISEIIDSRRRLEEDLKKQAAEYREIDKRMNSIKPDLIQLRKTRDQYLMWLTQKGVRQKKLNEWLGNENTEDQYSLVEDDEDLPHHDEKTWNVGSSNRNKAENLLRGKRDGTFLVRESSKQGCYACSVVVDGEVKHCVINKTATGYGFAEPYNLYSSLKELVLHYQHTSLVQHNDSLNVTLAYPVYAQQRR
Test: kinobeads assay, PI3Kalpha
Type: binding
Conditions: Further Kinobeads Data; read-out: PI3Ka
resultType: IC50

CN1Cc2nc(-c3ccc(NC(=O)NC4CC4)cc3F)nc(N3CCOCC3)c2C1 [Example 159]: 1 to 10 µM

Problem: Dear colleague, I am looking for the recorded IC50 of the following molecule: CCNC(=O)Nc1ccc(-c2nc3c(c(N4CCOCC4)n2)CN(C(=O)OC)C3)c(F)c1 [Example 162]
Solution: 1 to 10 µM

Problem: Fill in the blank: the reported IC50 of C[C@@H]1COCCN1c1nc(-c2ccc(NC(=O)NC3CC3)cc2F)nc2c1CN(C(=O)OC(C)(C)C)C2 [Example 182] is ____.
Solution: 1 to 10 µM

Problem: Requested field: IC50. Item: CCNC(=O)Nc1ccc(-c2nc3c(c(N4CCOC[C@@H]4C)n2)CCN(C(=O)N(C)C)C3)c(F)c1 [Example 176]
Solution: 1 to 10 µM

----------
Biological target: mTOR (Homo sapiens, UniProt P42345)
Construct: endogenous in cells; host or cells: Jurkat, clone E6-1 (ATCC TIB-152) cell lysate
Assay: mTOR kinobeads assay (competitive binding in Jurkat cell lysate, immunodetection)
Settings: Further Kinobeads Data; read-out: mTor
pIC50: −log10 of the molar value.
resultType: pIC50

CC(C)N1Cc2nc(-c3ccc(NC(=O)NCCO)cc3F)nc(N3CCOCC3)c2C1 [Example 184]: > 7.00
CCNC(=O)Nc1ccc(-c2nc3c(c(N4CCOCC4)n2)CN(C(=O)OCC)C3)c(F)c1 [Example 151]: 6.00 to 7.00

Problem: Recorded pIC50 for COC(=O)N1Cc2nc(-c3ccc(NC(=O)NCCO)cc3F)nc(N3CCOC[C@@H]3C)c2C1 [Example 181] , please?
Solution: > 7.00

Problem: Fill in: pIC50 of CCNC(=O)Nc1cc(F)c(-c2nc3c(c(N4CCOC[C@@H]4C)n2)CN(C(=O)OCC)C3)cc1F [Example 141] is ___
Solution: 5.00 to 6.00

Problem: Suppose we examine the compound CC(C)N1Cc2nc(-c3ccc(NC(=O)NC4CC4)cc3F)nc(N3CCOC[C@@H]3C)c2C1 [Example 172] ; what pIC50 value has been reported?
Solution: > 7.00

Problem: Please report the recorded pIC50 for C[C@H]1COCCN1c1nc(-c2ccc(NC(=O)NC3CC3)cc2F)nc2c1CN(C(=O)N(C)C)C2 [Example 178] .
Solution: 6.00 to 7.00

Problem: Endpoint output: pIC50 of CC(C)N1Cc2nc(-c3ccc(NC(=O)NCCF)cc3F)nc(N3CCOC[C@@H]3C)c2C1 [Example 186] . Value?
Solution: > 7.00

Problem: Look up pIC50 for this compound: COC(=O)N1Cc2nc(-c3ccc(NC(=O)NCCF)cc3F)nc(N3CCOC[C@@H]3C)c2C1 [Example 183]
Solution: 6.00 to 7.00

----------
Collected pIC50 values appear next to each entry.
Target: PI3 Kbeta (PI3 Kb) (Homo sapiens)
Construct: endogenous in cells; host or cells: cell lysate
Sequence (P42338 whole entry): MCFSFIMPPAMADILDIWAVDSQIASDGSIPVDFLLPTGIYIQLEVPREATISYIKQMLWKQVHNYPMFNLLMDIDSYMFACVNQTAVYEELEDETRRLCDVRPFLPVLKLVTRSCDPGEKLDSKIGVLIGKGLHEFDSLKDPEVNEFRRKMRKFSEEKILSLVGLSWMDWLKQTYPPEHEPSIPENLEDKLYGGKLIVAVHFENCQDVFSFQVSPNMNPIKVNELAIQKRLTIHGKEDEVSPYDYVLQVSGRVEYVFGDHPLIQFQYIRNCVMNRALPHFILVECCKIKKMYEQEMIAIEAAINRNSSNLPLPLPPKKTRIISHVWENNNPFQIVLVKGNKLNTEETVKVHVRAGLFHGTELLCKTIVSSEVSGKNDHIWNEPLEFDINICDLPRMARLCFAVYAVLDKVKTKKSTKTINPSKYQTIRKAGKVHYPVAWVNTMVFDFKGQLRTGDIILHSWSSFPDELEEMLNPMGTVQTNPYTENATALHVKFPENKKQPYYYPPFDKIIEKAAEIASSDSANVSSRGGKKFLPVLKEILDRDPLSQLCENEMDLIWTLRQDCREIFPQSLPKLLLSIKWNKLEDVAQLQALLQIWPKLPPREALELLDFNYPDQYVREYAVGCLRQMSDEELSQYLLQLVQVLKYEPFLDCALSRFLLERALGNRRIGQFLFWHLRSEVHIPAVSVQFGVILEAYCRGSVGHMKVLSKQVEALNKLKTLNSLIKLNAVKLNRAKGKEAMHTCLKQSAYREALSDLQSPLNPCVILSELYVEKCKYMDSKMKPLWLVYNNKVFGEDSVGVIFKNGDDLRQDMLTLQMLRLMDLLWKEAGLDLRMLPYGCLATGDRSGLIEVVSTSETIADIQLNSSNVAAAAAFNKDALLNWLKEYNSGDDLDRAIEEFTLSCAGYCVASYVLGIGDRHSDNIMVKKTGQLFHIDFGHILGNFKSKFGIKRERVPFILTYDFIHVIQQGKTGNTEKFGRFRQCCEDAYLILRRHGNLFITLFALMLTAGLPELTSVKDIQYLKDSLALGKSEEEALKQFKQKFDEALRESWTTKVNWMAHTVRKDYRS
Sequence (P27986 whole entry partner): as the sequence (P27986 whole entry partner) above
Experiment: kinobeads assay, PI3Kbeta
Assay type: binding
Conditions: kinobeads assay, Table 6; read-out: Inhibition values (IC50) PI3Kb
pIC50: −log10 of the molar value.

Sample records with pIC50:
CCNC(=O)Nc1ccc(-c2nc3c(c(N4CCOC[C@@H]4C)n2)CN(C(=O)C2CCN(C(C)=O)CC2)C3)cc1F: < 5.00
CCNC(=O)Nc1ccc(-c2nc3c(c(N4CCOC[C@@H]4C)n2)CCN(CC2CC2)C3)cc1: < 5.00

Problem: Hello, I am looking for reported pIC50 with PI3 Kbeta (PI3 Kb) (Homo sapiens) for CCNC(=O)Nc1ccc(-c2nc3c(c(N4CCOCC4)n2)CCN(C(=O)OC)C3)cc1 . Could you help?
Solution: < 5.00

Problem: Form field: pIC50 recorded for CC(C)N1CCc2c(nc(-c3ccc(NC(=O)NC4CC4)cc3)nc2N2CCOC[C@@H]2C)C1 with PI3 Kbeta (PI3 Kb) (Homo sapiens) (enter value)
Solution: 5.00 to 6.00

----------
Target: DNA-dependent protein kinase (DNA-PK) (Homo sapiens)
Construct: endogenous in cells; host or cells: Jurkat, clone E6-1 (ATCC TIB-152) cell lysate
Assay: kinobeads assay, DNA-PK
Assay type: binding
Conditions: kinobeads assay, Table 6; read-out: Inhibition values (IC50) DNAPK
// values below are reported IC50

Here is how some compounds turned out for IC50.
CCOC(=O)N1Cc2nc(-c3ccc(NC(=O)NCCNC(C)=O)cc3)nc(N3CCOC[C@@H]3C)c2C1 [Example 124]: > 10 µM
CCNC(=O)Nc1ccc(-c2nc3c(c(N4CCOCC4)n2)CN(C(=O)OCC)C3)cc1 [Example 70]: 1 to 10 µM
CCNC(=O)Nc1ccc(-c2nc3c(c(N4CCOC[C@@H]4C)n2)CCN(CC(C)C)C3)cc1.O=CO [Example 76, formate]: > 10 µM

Problem: Suppose we examine the compound CCNC(=O)Nc1ccc(-c2nc3c(c(N4CCOC[C@@H]4C)n2)CCN(CC2CC2)C3)cc1 [Example 37] ; what IC50 value has been reported?
Solution: > 10 µM

----------
Molecular target: PI3 Kgamma (PI3 Kg) (Homo sapiens)
Construct: endogenous in cells; host or cells: cell lysate
Sequence (P48736 whole entry): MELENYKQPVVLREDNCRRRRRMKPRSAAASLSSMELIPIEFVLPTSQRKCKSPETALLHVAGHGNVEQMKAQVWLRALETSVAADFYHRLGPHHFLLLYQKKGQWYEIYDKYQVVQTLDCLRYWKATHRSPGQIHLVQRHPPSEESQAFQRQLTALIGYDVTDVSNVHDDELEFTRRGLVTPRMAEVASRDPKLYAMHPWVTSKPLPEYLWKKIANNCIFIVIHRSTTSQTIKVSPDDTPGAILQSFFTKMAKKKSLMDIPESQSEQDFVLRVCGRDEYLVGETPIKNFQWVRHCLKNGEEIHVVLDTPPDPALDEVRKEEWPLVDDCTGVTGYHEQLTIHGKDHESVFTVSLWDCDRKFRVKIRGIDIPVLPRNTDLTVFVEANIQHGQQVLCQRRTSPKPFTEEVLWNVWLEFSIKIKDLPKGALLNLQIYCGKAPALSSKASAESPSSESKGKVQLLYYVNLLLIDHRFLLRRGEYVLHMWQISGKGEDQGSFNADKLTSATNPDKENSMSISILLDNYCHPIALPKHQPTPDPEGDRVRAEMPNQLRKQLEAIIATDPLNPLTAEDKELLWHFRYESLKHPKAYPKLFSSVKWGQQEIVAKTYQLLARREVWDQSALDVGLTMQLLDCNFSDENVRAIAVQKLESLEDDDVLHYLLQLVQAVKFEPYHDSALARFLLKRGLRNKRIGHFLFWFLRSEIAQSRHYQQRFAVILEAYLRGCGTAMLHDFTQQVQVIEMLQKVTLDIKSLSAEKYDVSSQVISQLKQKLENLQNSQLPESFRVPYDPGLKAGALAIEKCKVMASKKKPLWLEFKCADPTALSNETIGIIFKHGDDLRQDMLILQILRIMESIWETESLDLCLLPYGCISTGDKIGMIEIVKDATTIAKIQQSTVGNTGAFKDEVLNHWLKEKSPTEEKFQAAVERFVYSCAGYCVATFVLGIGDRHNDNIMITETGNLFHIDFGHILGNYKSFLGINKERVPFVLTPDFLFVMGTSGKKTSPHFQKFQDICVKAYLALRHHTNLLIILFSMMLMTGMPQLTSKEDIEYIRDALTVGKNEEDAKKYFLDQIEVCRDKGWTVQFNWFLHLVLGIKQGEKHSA
Assay: kinobeads assay, PI3Kgamma
Type: binding
Conditions: kinobeads assay, Table 6; read-out: Inhibition values (IC50) PI3Kg
Measured IC50 accompanies every entry in the list below.

C[C@H]1COCCN1c1nc(-c2ccc(NC(=O)Nc3cccc(O)n3)cc2)nc2c1CN(C)C2: 1 to 10 µM
CCNC(=O)Nc1ccc(-c2nc3c(c(N4CCOCC4)n2)CCN(C(=O)NCC)C3)cc1: > 10 µM
CCNC(=O)Nc1ccc(-c2nc3c(c(N4CCOC[C@@H]4C)n2)CCN(C(=O)C2CC2)C3)cc1: > 10 µM
CCOC(=O)N1Cc2nc(-c3ccc(NC(=O)NCC(N)=O)cc3)nc(N3CCOC[C@@H]3C)c2C1: 1 to 10 µM
CCNC(=O)Nc1ccc(-c2nc3c(c(N4CCOCC4)n2)CN(C(=O)C(C)(C)C)C3)cc1: > 10 µM

Problem: // returns reported IC50 for input CCNC(=O)Nc1ccc(-c2nc3c(c(N4CCOC[C@@H]4C)n2)CN(CC(C)C)C3)cc1
Solution: > 10 µM

Problem: Requested field: IC50. Item: C[C@H]1COCCN1c1nc(-c2ccc(NC(=O)NC3CC3)cc2)nc2c1CCN(CC(C)(C)C)C2
Solution: > 10 µM

Problem: Given CCOC(=O)N1Cc2nc(-c3ccc(NC(=O)NC4CC4)cc3F)nc(N3CCOC[C@@H]3C)c2C1 , state its recorded IC50.
Solution: > 10 µM

----------
Property: pIC50; scope: individual molecules
Target: mTOR (Homo sapiens)
Construct: endogenous in cells; host or cells: Jurkat, clone E6-1 (ATCC TIB-152) cell lysate
Test: mTOR kinobeads assay (competitive binding in Jurkat cell lysate, immunodetection)
Conditions: Further Kinobeads Data; read-out: mTor
pIC50: −log10 of the molar value.

Past entries and their recorded results:
C[C@H]1COCCN1c1nc(-c2ccc(NC(=O)NC3CC3)cc2F)nc2c1CCN(C(=O)N(C)C)C2 [Example 165]: > 7.00
CN1Cc2nc(-c3ccc(NC(=O)NC4CC4)cc3F)nc(N3CCOCC3)c2C1 [Example 159]: 6.00 to 7.00
CC(C)N1Cc2nc(-c3ccc(NC(=O)NCCF)cc3F)nc(N3CCOCC3)c2C1 [Example 185]: > 7.00
COC(=O)N1Cc2nc(-c3ccc(NC(=O)NC4CC4)cc3F)nc(N3CCOC[C@H]3C)c2C1 [Example 180]: > 7.00
CCNC(=O)Nc1ccc(-c2nc3c(c(N4CCOC[C@@H]4C)n2)CCN(C(=O)N(C)C)C3)c(F)c1 [Example 176]: > 7.00

Problem: Name the recorded pIC50 for COC(=O)N1Cc2nc(-c3ccc(NC(=O)NCCO)cc3F)nc(N3CCOCC3)c2C1 [Example 175] .
Solution: 6.00 to 7.00

Problem: Return reported pIC50; argument: CCNC(=O)Nc1ccc(-c2nc3c(c(N4CCOC[C@@H]4C)n2)CN(C(C)=O)C3)c(F)c1 [Example 157]
Solution: > 7.00

Problem: Entry C[C@H]1COCCN1c1nc(-c2ccc(NC(=O)NC3CC3)cc2F)nc2c1CN(C(=O)OC(C)(C)C)C2 [Example 144] : reported pIC50 = ?
Solution: 6.00 to 7.00

----------
Target: mTOR (Homo sapiens)
Construct: endogenous in cells; host or cells: Jurkat, clone E6-1 (ATCC TIB-152) cell lysate
Assay: mTOR kinobeads assay (competitive binding in Jurkat cell lysate, immunodetection)
Settings: kinobeads assay, Table 6; read-out: Inhibition values (IC50) mTOR
pIC50: −log10 of the molar value.
Recorded measurements of pIC50, one per entry

Examples from the recorded data:
CCNC(=O)Nc1ccc(-c2nc3c(c(N4CCOC[C@@H]4C)n2)CN(C=O)C3)cc1 [Example 8]: > 7.00
COC(=O)N1CCc2c(nc(-c3ccc(NC(=O)NC4CC4)cc3)nc2N2CCOC[C@@H]2C)C1 [Example 83]: > 7.00
CCNC(=O)Nc1ccc(-c2nc3c(c(N4CCOC[C@@H]4C)n2)CN(C(=O)OCC)C3)c(F)c1 [Example 113]: 6.00 to 7.00

Continue with the next compound.
Problem: Requested read-out: pIC50. Entry: CNC(=O)Nc1ccc(-c2nc3c(c(N4CCOC[C@@H]4C)n2)CCNC3)cc1 [Example 16]
Solution: > 7.00
